Each item that follows carries a reported viability, T/C.
test system: 186277-243-T-J2-PDC complex spheroid growth, % test/control; assay: Anticancer human tumor 186277-243-T-J2-PDC patient-derived colon adenocarcinoma cell line growth inhibition [Asc]; settings: second compound 0.03 µM; first compound 0.1 µM; stronger effect = lower value
measured_quantity: viability, T/C (%)

>  <compound>
NC1CCC(NC2CC2c2ccccc2)CC1 (centres undefined) + CCN1C(C(=O)NC23CCC(C(=O)O)(CC2)CC3)C(c2cccc(Cl)c2F)C2(C(=O)Nc3cc(Cl)ccc32)C12CCCCC2

>  <recorded_number>
113

$$$$
>  <compound>
C=C(F)C(=O)N1CCN(c2nc(OCC3CCCN3C)nc3c2CCN(c2cccc4cccc(Cl)c24)C3)CC1CC#N (centres undefined) + CCN1C(C(=O)NC23CCC(C(=O)O)(CC2)CC3)C(c2cccc(Cl)c2F)C2(C(=O)Nc3cc(Cl)ccc32)C12CCCCC2

>  <recorded_number>
107

$$$$
>  <compound>
Cn1ncnc1[C@H]1c2n[nH]c(=O)c3cc(F)cc(c23)N[C@@H]1c1ccc(F)cc1 + CCN1C(C(=O)NC23CCC(C(=O)O)(CC2)CC3)C(c2cccc(Cl)c2F)C2(C(=O)Nc3cc(Cl)ccc32)C12CCCCC2

>  <recorded_number>
87.2

$$$$
>  <compound>
CNC(C)C(=O)NC1CN(S(=O)(=O)c2cccc(S(=O)(=O)N3CCC4CCC(C(=O)NC(c5ccccc5)c5ccccc5)N4C(=O)C(NC(=O)C(C)NC)C3)c2)CCC2CCC(C(=O)NC(c3ccccc3)c3ccccc3)N2C1=O (centres undefined) + CCN1C(C(=O)NC23CCC(C(=O)O)(CC2)CC3)C(c2cccc(Cl)c2F)C2(C(=O)Nc3cc(Cl)ccc32)C12CCCCC2

>  <recorded_number>
102

$$$$

====

System: 186277-243-T-J2-PDC complex spheroid growth, % test/control
Assay: Anticancer human tumor 186277-243-T-J2-PDC cell line growth inhibition [Asc];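 also: spheroids exposed to agents for 7 days; 100% = DMSO vehicle control wells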
Details: second compound 0.1 µM; first compound 0.00316 µM; stronger effect = lower value
Text: Multicellular complex tumor spheroid response to apoptosis pathway targeting inhibitors Alrizomadlin, Pelcitoclax, and Dasminapant in combination with a variety of drugs and investigational agents in selected tumor cell lines […] Compounds. […] If the clinical Cmax for an agent had not been determined, the highest concentration tested was 10 microM. […]
Each item that follows carries a reported viability, T/C.
measured_quantity: viability, T/C (%)

>  <compound>
O=C(c1ccc(F)c(F)c1Nc1ccc(I)cc1F)N1CC(O)([C@@H]2CCCCN2)C1 + Cc1c(S(C)(=O)=O)c(-c2cc(F)cc(N3CCN(c4ccc(NS(=O)(=O)c5ccc(NC(CCN6CCC(C(=O)OCCCP(=O)(O)O)CC6)CSc6ccccc6)c(S(=O)(=O)C(F)(F)F)c5)cc4)CC3)c2)c(-c2ccc(Cl)cc2)n1C(C)C

>  <recorded_number>
95.5

$$$$
>  <compound>
COc1c(OCCCN2CCOCC2)ccc2c3n(c(=NC(=O)c4cnc(N)nc4)nc12)CCN3 + CNC(C)C(=O)NC1CN(S(=O)(=O)c2cccc(S(=O)(=O)N3CCC4CCC(C(=O)NC(c5ccccc5)c5ccccc5)N4C(=O)C(NC(=O)C(C)NC)C3)c2)CCC2CCC(C(=O)NC(c3ccccc3)c3ccccc3)N2C1=O

>  <recorded_number>
114

$$$$
>  <compound>
NC1CCC(NC2CC2c2ccccc2)CC1 (centres undefined) + Cc1c(S(C)(=O)=O)c(-c2cc(F)cc(N3CCN(c4ccc(NS(=O)(=O)c5ccc(NC(CCN6CCC(C(=O)OCCCP(=O)(O)O)CC6)CSc6ccccc6)c(S(=O)(=O)C(F)(F)F)c5)cc4)CC3)c2)c(-c2ccc(Cl)cc2)n1C(C)C

>  <recorded_number>
96.9

$$$$
>  <compound>
Cn1ncnc1[C@H]1c2n[nH]c(=O)c3cc(F)cc(c23)N[C@@H]1c1ccc(F)cc1 + Cc1c(S(C)(=O)=O)c(-c2cc(F)cc(N3CCN(c4ccc(NS(=O)(=O)c5ccc(NC(CCN6CCC(C(=O)OCCCP(=O)(O)O)CC6)CSc6ccccc6)c(S(=O)(=O)C(F)(F)F)c5)cc4)CC3)c2)c(-c2ccc(Cl)cc2)n1C(C)C

>  <recorded_number>
101

$$$$

====

test system: 186277-243-T-J2-PDC complex spheroid growth, % test/control; experiment: Anticancer human tumor 186277-243-T-J2-PDC cell line growth inhibition [Asc]; details: second compound 0.01 µM; first compound 0.01 µM; stronger effect = lower value;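 also: spheroids exposed to agents for 7 days; 100% = DMSO vehicle control wells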
Each item that follows carries a reported viability, T/C.
measured_quantity: viability, T/C (%)

>  <compound>
NC1CCC(NC2CC2c2ccccc2)CC1 (stereo not given) + CNC(C)C(=O)NC1CN(S(=O)(=O)c2cccc(S(=O)(=O)N3CCC4CCC(C(=O)NC(c5ccccc5)c5ccccc5)N4C(=O)C(NC(=O)C(C)NC)C3)c2)CCC2CCC(C(=O)NC(c3ccccc3)c3ccccc3)N2C1=O

>  <recorded_number>
101

$$$$
>  <compound>
COc1c(OCCCN2CCOCC2)ccc2c3n(c(=NC(=O)c4cnc(N)nc4)nc12)CCN3 + CNC(C)C(=O)NC1CN(S(=O)(=O)c2cccc(S(=O)(=O)N3CCC4CCC(C(=O)NC(c5ccccc5)c5ccccc5)N4C(=O)C(NC(=O)C(C)NC)C3)c2)CCC2CCC(C(=O)NC(c3ccccc3)c3ccccc3)N2C1=O

>  <recorded_number>
105

$$$$
>  <compound>
Cn1ncnc1[C@H]1c2n[nH]c(=O)c3cc(F)cc(c23)N[C@@H]1c1ccc(F)cc1 + CNC(C)C(=O)NC1CN(S(=O)(=O)c2cccc(S(=O)(=O)N3CCC4CCC(C(=O)NC(c5ccccc5)c5ccccc5)N4C(=O)C(NC(=O)C(C)NC)C3)c2)CCC2CCC(C(=O)NC(c3ccccc3)c3ccccc3)N2C1=O

>  <recorded_number>
119

$$$$
>  <compound>
O=C(c1ccc(F)c(F)c1Nc1ccc(I)cc1F)N1CC(O)([C@@H]2CCCCN2)C1 + CNC(C)C(=O)NC1CN(S(=O)(=O)c2cccc(S(=O)(=O)N3CCC4CCC(C(=O)NC(c5ccccc5)c5ccccc5)N4C(=O)C(NC(=O)C(C)NC)C3)c2)CCC2CCC(C(=O)NC(c3ccccc3)c3ccccc3)N2C1=O

>  <recorded_number>
89.6

$$$$
>  <compound>
CCN1CCN(Cc2ccc(Nc3ncc(F)c(-c4cc(F)c5nc(C)n(C(C)C)c5c4)n3)nc2)CC1 + CNC(C)C(=O)NC1CN(S(=O)(=O)c2cccc(S(=O)(=O)N3CCC4CCC(C(=O)NC(c5ccccc5)c5ccccc5)N4C(=O)C(NC(=O)C(C)NC)C3)c2)CCC2CCC(C(=O)NC(c3ccccc3)c3ccccc3)N2C1=O

>  <recorded_number>
110

$$$$

====

test system: 186277-243-T-J2-PDC complex spheroid growth, % test/control; assay: Anticancer human tumor 186277-243-T-J2-PDC cell line growth inhibition [Asc]; details: second compound 10 µM; first compound 0.00316 µM; stronger effect = lower value;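 also: spheroids exposed to agents for 7 days; 100% = DMSO vehicle control wells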
Each item that follows carries a reported viability, T/C.
measured_quantity: viability, T/C (%)

>  <compound>
CNC(C)C(=O)NC1CN(S(=O)(=O)c2cccc(S(=O)(=O)N3CCC4CCC(C(=O)NC(c5ccccc5)c5ccccc5)N4C(=O)C(NC(=O)C(C)NC)C3)c2)CCC2CCC(C(=O)NC(c3ccccc3)c3ccccc3)N2C1=O (stereo unspecified) + Cc1c(S(C)(=O)=O)c(-c2cc(F)cc(N3CCN(c4ccc(NS(=O)(=O)c5ccc(NC(CCN6CCC(C(=O)OCCCP(=O)(O)O)CC6)CSc6ccccc6)c(S(=O)(=O)C(F)(F)F)c5)cc4)CC3)c2)c(-c2ccc(Cl)cc2)n1C(C)C

>  <uom>
%

>  <recorded_number>
93.6

$$$$
>  <compound>
CCN1CCN(Cc2ccc(Nc3ncc(F)c(-c4cc(F)c5nc(C)n(C(C)C)c5c4)n3)nc2)CC1 + Cc1c(S(C)(=O)=O)c(-c2cc(F)cc(N3CCN(c4ccc(NS(=O)(=O)c5ccc(NC(CCN6CCC(C(=O)OCCCP(=O)(O)O)CC6)CSc6ccccc6)c(S(=O)(=O)C(F)(F)F)c5)cc4)CC3)c2)c(-c2ccc(Cl)cc2)n1C(C)C

>  <uom>
%

>  <recorded_number>
91.3

$$$$
>  <compound>
COc1c(OCCCN2CCOCC2)ccc2c3n(c(=NC(=O)c4cnc(N)nc4)nc12)CCN3 + Cc1c(S(C)(=O)=O)c(-c2cc(F)cc(N3CCN(c4ccc(NS(=O)(=O)c5ccc(NC(CCN6CCC(C(=O)OCCCP(=O)(O)O)CC6)CSc6ccccc6)c(S(=O)(=O)C(F)(F)F)c5)cc4)CC3)c2)c(-c2ccc(Cl)cc2)n1C(C)C

>  <uom>
%

>  <recorded_number>
82.4

$$$$
>  <compound>
Cn1ncnc1[C@H]1c2n[nH]c(=O)c3cc(F)cc(c23)N[C@@H]1c1ccc(F)cc1 + Cc1c(S(C)(=O)=O)c(-c2cc(F)cc(N3CCN(c4ccc(NS(=O)(=O)c5ccc(NC(CCN6CCC(C(=O)OCCCP(=O)(O)O)CC6)CSc6ccccc6)c(S(=O)(=O)C(F)(F)F)c5)cc4)CC3)c2)c(-c2ccc(Cl)cc2)n1C(C)C

>  <uom>
%

>  <recorded_number>
116

$$$$
>  <compound>
O=C(c1ccc(F)c(F)c1Nc1ccc(I)cc1F)N1CC(O)([C@@H]2CCCCN2)C1 + Cc1c(S(C)(=O)=O)c(-c2cc(F)cc(N3CCN(c4ccc(NS(=O)(=O)c5ccc(NC(CCN6CCC(C(=O)OCCCP(=O)(O)O)CC6)CSc6ccccc6)c(S(=O)(=O)C(F)(F)F)c5)cc4)CC3)c2)c(-c2ccc(Cl)cc2)n1C(C)C

>  <uom>
%

>  <recorded_number>
88.1

$$$$
>  <compound>
NC1CCC(NC2CC2c2ccccc2)CC1 (stereo unspecified) + Cc1c(S(C)(=O)=O)c(-c2cc(F)cc(N3CCN(c4ccc(NS(=O)(=O)c5ccc(NC(CCN6CCC(C(=O)OCCCP(=O)(O)O)CC6)CSc6ccccc6)c(S(=O)(=O)C(F)(F)F)c5)cc4)CC3)c2)c(-c2ccc(Cl)cc2)n1C(C)C

>  <uom>
%

>  <recorded_number>
97.8

$$$$
